# System: M14 melanoma
# method.notes: NCI tumour cell line growth inhibition, 48 h
For each entry below, report its TGI value.

{"compound": "COc1ccc(-c2onc(-c3ccc([N+](=O)[O-])cc3)c2C2=NCCN2)cc1", "experimental.value": "> 100 µM"}

For each of the compounds below, note its TGI.
1. N=c1oc2ccc([N+](=O)[O-])cc2cc1C(=O)NCc1ccccc1
2. CC(=O)Nc1ccc(C(=O)NN2C(=O)C(Cl)C2c2ccc(Cl)cc2)cc1 (stereo not drawn)
3. C=C(Cl)c1c(OC)cccc1OCc1ccccc1

["61.3 µM", "> 100 µM", "> 100 µM"]

Batch request: TGI per item, same order as input.
1. COC(=O)CCc1cc(OC)c2c(c1)C(C(=O)OC)C(c1ccc(OC)c(OC)c1)O2 (stereo not drawn)
2. CC1(C)CN=C(c2ccc3c(c2)Cc2cc(C4=NCC(C)(C)N4)ccc2-3)N1
3. Nc1nc(N)c2cc(Sc3ccc4nc(N)nc(N)c4c3)ccc2n1
4. CCN(CC)c1cc2c3c(c1)CCCN3CCC2
5. CN(C)C=C1C(=O)c2c(Br)sc(Br)c2C1=O
6. CCC(C)C(C(=O)N/N=C1/SCC(=O)N1c1ccccc1)C(=O)N/N=C1/SCC(=O)N1c1ccccc1 (stereo not drawn)

1. > 100 µM
2. > 100 µM
3. > 100 µM
4. > 10 µM
5. 33.8 µM
6. > 100 µM

Could I get TGI for every one of these entries?
1. CN1CCN(CCCN)CC1
2. CCN(CC)CCC(=O)NC1c2ccc(Cl)cc2Oc2c(C)cccc21 (stereo not drawn)
3. CCOC(=O)C(SCCO)C(C(=O)OCC)n1cnc2c(N)ncnc21 (stereo not drawn)
4. CN(C)c1ccc(/C=N\NC(=O)c2ccccc2Nc2ccccc2C(=O)N/N=C/c2ccc(N(C)C)cc2)cc1
5. NOCC(=O)O

1. > 100 µM
2. 31.3 µM
3. 9.83 µM
4. 95.9 µM
5. > 100 µM

###

# Test system: MCF7 breast
# method.notes: NCI tumour cell line growth inhibition, 48 h
property: TGI

Your task in this section: give TGI for each listed record.
1. CC(=O)C(=[N+]=[N-])C(=O)NCC#N
2. O=[n+]1c2ccccc2n([O-])c2ccccc21
3. C/C1=C/C(C)CC(C)OC(=O)C(C)NC(=O)C(Cc2ccc(O)c(I)c2)N(C)C(=O)CNC(=O)C(C)C1 (stereo not drawn)

1: > 10 µM; 2: > 100 µM; 3: > 100 µM

###

Hi there, I'd appreciate the recorded TGI for every entry that follows.
# Tested on: A498 renal
# method.notes: NCI tumour cell line growth inhibition, 48 h

{"compound": "Cc1oc2c(c1C)S(=O)(=O)C(C#N)C(c1ccccc1)N2 (centres undefined)", "TGI": "> 100 µM"}
{"compound": "COc1cc(/C=C(\\C#N)c2nc3ccccc3o2)ccc1O", "TGI": "34.8 µM"}
{"compound": "CCOC(=O)NNC(=O)C1CSC(c2ccccc2)N1C(C)=O (centres undefined)", "TGI": "> 100 µM"}
{"compound": "O=C1CC(CC(O)[C@@H]2CCCC[C@@H]2O)CC(=O)N1c1ccccc1 (some centres undefined)", "TGI": "> 100 µM"}
{"compound": "COc1cccc(OC/C(N=Cc2cccnc2)=N/NC(=O)c2ccncc2)c1", "TGI": "> 100 µM"}

Quick one: give me TGI for each item below, same order please.
1. CCCCCCCCCCCCCCCCCCNc1ccn(C2OC(COP(=O)(O)OC3CC(n4cc(F)c(=O)[nH]c4=O)OC3COP(=O)(O)OCC3OC(n4ccc(N)nc4=O)C(O)C3O)C(O)C2O)c(=O)n1 (centres undefined)
2. O=S(=O)(N/N=C/c1ccc(/C=N/NS(=O)(=O)c2ccccc2)cc1)c1ccccc1
3. CC(C)=CCC[C@@H](C)C1=C(O)C(O)C(C)=C2N=C(c3ccccc3)C(=O)OC21 (some centres undefined)
4. CC1=C(C(=O)Nc2ccccc2C)C(c2ccc(Cl)c(Cl)c2)C(C(=O)Nc2ccccc2C)=C(C)N1

1. > 100 µM
2. > 100 µM
3. > 13.1 µM
4. 61.8 µM

###

# Test system: MDA-MB-435
# method.notes: NCI tumour cell line growth inhibition, 48 h
Where a SMILES comes first, the peptide text is derived from it. The star is where a group is joined. Boc = CC(C)(C)OC(=O)*; OBn = c1ccc(CO*)cc1
Assignment: determine reported TGI for the given compounds.

{"compound": "O=C1c2cccc3cc([N+](=O)[O-])cc(c23)C(=O)N1CCCN1CCN(CCCNc2ccc3ncn4c5ccccc5c(=O)c2c34)CC1", "TGI": "> 50 µM"}
{"compound": "O=c1c2cc(Cl)ccc2oc2ccc(OCCCCCN3CCCCC3)cc12", "TGI": "2.37 µM"}
{"compound": "CC(C)C(NC(=O)C(Cc1ccccc1)NC(=O)OC(C)(C)C)C(=O)NCC(=O)OCc1ccccc1 (stereo not drawn) (Boc-Phe-Val-Gly-OBn; configuration not given here)", "TGI": "21.9 µM"}
{"compound": "CO[C@H]1c2cccc3cccc(c23)[C@@H]1n1[nH]c(=O)n(C(C)(C)C)c1=O", "TGI": "> 100 µM"}
{"compound": "CC1(C)C2CCC3=C(CCC4(C)C5C[C@](C)(C(=O)O)CC[C@]5(C)CC[C@]34C)[C@@]2(C)CC[C@@H]1O (stereo partly drawn)", "TGI": "63 µM"}
{"compound": "COc1cc(C2SCC(=O)N2c2ccccc2Cl)cc(OC)c1OC (stereo not drawn)", "TGI": "64.8 µM"}
{"compound": "C[C@]12C[C@H](c3ccccc3)Nc3ccccc3N1C(c1ccccc1)=NO2", "TGI": "> 100 µM"}

// next entry
Identify TGI associated with the compound CC12OC(c3ccccc3)=CC(c3ccc(Cl)cc3)=C1C(c1ccccc1)=CC2=O (stereo not drawn)
> 100 µM

###

Assignment: determine reported TGI for the given compounds.
# Test system: PC-3 prostate
# method.notes: NCI tumour cell line growth inhibition, 48 h

{"compound": "CC12CCC3[C@@H](CC3(C)C)C(O)(CCC1=O)C2 (stereo not given in full)", "experimental.value": "> 100 µM"}
{"compound": "COC(=O)c1c(O)ccc2c1c1c(n2Cc2ccccc2)C(=O)c2ccccc2C1=O", "experimental.value": "29.4 µM"}
{"compound": "COc1cc(Nc2nccc(Nc3ccc4c(C)[nH]nc4c3)n2)cc(OC)c1OC", "experimental.value": "> 20.5 µM"}
{"compound": "Nc1nc(N)c2cc(Sc3ccc4nc(N)nc(N)c4c3)ccc2n1", "experimental.value": "> 100 µM"}
{"compound": "C=CCC(N[C@H](CO)c1ccccc1)c1ccc2ccccc2n1 (stereo not given in full)", "experimental.value": "> 100 µM"}
{"compound": "Cc1cc([C@H](C#N)c2nc3ccccc3[nH]2)nc(Cl)n1", "experimental.value": "> 100 µM"}
{"compound": "CN1CCN(CCCN)CC1", "experimental.value": "> 100 µM"}
{"compound": "CCN(CC)CCC(=O)NC1c2ccc(Cl)cc2Oc2c(C)cccc21 (stereo not given)", "experimental.value": "26.7 µM"}

Give TGI for each listed item.
1. COc1cc(C2SCC(=O)N2c2ccccc2Cl)cc(OC)c1OC (stereo not given)
2. OC1(CCc2ccccc2)COC(C(F)(F)F)(C(F)(F)F)C1 (stereo not given)

["> 100 µM", "> 100 µM"]

###

# Test system: BT-549 breast
# method.notes: NCI tumour cell line growth inhibition, 48 h
Where a SMILES comes first, the peptide text is derived from it. [ ]: non-standard residue; d: D form. Ac5c = NC1(C(=O)O)CCCC1
property: TGI

{"compound": "C=C(Cl)c1c(OC)cccc1OCc1ccccc1", "property": "TGI", "experimental.value": "> 100 µM"}
{"compound": "COc1cc(C2SCC(=O)N2c2ccccc2Cl)cc(OC)c1OC (stereo unspecified)", "property": "TGI", "experimental.value": "> 100 µM"}
{"compound": "CNc1c2cccc(C)c2nc2c(C(=O)NCCN(C)C)cccc12", "property": "TGI", "experimental.value": "2.8 µM"}

List the reported TGI of each compound below.
1. NC1(C(=O)NC2(C(=O)O)CCCC2)CCCC1 (H-[Ac5c]-[Ac5c]-OH)
2. CN1CCN(CCCN)CC1
3. CCOC(=O)C(Cc1c[nH]c2ccc(N)cc12)(NC(C)=O)C(=O)OCC
4. CC12OC(c3ccccc3)=CC(c3ccc(Cl)cc3)=C1C(c1ccccc1)=CC2=O (stereo unspecified)
5. CCOC(=O)C(C(=O)OCC)=C1NC2(c3ccccc3Nc3ccc(C)cc32)C(C#N)S1 (stereo unspecified)
6. CCC1(CC)C(=O)OC(=O)C1(CC)CC
7. CC(=O)Oc1cc2c(n(C)c1=O)-c1ccccc1C2
8. Cc1cc(C)nc(NS(=O)(=O)c2ccc(Nc3c4ccccc4nc4c(C(=O)NNCCO)cccc34)cc2)n1

["> 100 µM", "> 100 µM", "> 1000 µM", "> 100 µM", "29.5 µM", "> 100 µM", "> 100 µM", "> 100 µM"]

Origin of the recorded values: PubChem BioAssay (NCI)
